Hello, the source for this data is patent US11897862B2, in case you need it.

Below, each entry is listed alongside its reported DC50.
- testSystem: IKZF1 (Homo sapiens, UniProt Q13422+Q96SW2)
- Construct: expressed in transfected cells
- Sequence (Q13422 whole entry): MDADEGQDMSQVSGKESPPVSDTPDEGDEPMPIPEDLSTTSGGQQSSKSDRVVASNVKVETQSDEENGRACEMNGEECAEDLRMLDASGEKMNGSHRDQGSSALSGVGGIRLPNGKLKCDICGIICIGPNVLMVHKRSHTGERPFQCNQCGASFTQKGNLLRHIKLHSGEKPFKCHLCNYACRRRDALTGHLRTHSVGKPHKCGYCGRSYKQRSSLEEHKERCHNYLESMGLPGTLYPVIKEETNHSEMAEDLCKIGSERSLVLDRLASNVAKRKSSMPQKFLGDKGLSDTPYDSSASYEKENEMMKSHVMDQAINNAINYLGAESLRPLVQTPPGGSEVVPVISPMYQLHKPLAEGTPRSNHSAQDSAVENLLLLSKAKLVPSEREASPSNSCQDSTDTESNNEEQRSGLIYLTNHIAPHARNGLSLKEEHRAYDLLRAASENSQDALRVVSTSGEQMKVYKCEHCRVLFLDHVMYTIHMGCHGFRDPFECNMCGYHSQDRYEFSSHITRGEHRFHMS
- Sequence (Q96SW2 whole entry): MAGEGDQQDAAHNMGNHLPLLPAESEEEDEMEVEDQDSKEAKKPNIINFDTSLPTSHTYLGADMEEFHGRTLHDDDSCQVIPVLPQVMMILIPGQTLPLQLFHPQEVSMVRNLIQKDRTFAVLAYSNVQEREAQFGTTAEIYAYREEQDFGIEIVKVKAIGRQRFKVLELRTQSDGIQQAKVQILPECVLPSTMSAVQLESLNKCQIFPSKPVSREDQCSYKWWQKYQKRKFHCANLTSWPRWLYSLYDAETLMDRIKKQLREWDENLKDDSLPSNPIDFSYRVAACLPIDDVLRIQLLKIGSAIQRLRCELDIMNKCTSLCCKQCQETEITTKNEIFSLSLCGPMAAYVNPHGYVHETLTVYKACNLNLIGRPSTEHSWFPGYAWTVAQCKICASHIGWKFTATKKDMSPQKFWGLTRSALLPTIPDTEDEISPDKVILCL
- Sequence (Q16531 whole entry partner): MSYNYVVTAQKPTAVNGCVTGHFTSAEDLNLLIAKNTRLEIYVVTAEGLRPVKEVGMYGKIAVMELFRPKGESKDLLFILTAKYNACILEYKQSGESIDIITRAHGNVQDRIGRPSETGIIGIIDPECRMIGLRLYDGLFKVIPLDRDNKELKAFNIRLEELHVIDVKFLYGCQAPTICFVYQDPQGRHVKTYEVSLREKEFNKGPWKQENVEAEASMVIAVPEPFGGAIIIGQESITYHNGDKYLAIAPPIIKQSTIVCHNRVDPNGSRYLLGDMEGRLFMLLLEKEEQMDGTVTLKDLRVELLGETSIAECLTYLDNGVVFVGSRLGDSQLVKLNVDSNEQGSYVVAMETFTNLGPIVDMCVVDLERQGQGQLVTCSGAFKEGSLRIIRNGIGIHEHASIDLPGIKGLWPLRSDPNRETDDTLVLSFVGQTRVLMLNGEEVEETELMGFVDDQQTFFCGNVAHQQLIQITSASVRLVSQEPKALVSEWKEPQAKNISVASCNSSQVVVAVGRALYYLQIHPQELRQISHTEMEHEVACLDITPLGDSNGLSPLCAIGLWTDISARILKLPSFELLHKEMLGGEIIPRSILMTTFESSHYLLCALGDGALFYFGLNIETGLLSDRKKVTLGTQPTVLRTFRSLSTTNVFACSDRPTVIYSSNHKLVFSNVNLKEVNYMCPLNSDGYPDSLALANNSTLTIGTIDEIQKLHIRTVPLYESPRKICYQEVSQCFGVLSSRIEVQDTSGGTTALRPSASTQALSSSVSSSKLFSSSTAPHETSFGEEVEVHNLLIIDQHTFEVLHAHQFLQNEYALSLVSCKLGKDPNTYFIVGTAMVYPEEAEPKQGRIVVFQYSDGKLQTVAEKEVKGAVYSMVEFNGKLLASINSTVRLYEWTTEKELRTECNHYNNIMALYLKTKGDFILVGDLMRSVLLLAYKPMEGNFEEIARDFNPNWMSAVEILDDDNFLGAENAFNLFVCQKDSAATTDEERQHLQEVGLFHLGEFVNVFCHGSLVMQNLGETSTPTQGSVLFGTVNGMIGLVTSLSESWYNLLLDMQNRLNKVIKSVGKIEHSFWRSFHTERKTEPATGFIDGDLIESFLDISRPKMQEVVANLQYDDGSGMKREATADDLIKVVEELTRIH
- testProtocol: HEK293 HiBiT in vitro degradation of IKZF1
- Assay type: cell-based
- measurementSetup: HEK293 HiBiT, 18-24 hr incubation, normalized to DMSO control; read-out: IKZF1 EC50
parameter: DC50 (nM)

compound="O=C1CCC(N2Cc3cc(C[C@H]4CCCC[C@@H]4NCC4CC(F)(F)C4)ccc3C2=O)C(=O)N1 (stereo partly shown)" parameter=DC50 censoringoperator== valueobserved=345
compound="O=C1CCC(N2Cc3cc(C[C@H]4CCCC[C@@H]4NC4Cc5ccccc5C4)ccc3C2=O)C(=O)N1 (stereo partly shown)" parameter=DC50 censoringoperator== valueobserved=78
compound="O=C1CCC(N2Cc3cc(C[C@H]4CCCC[C@@H]4NCc4cc(F)cc(F)c4)ccc3C2=O)C(=O)N1 (stereo partly shown)" parameter=DC50 censoringoperator=> valueobserved=1000
compound="CC1CCC(N[C@H]2CCCC[C@@H]2Cc2ccc3c(c2)CN(C2CCC(=O)NC2=O)C3=O)CC1 (single isomer, unassigned) [Example 279]" parameter=DC50 censoringoperator== valueobserved=51
compound=O=C1CC[C@H](N2Cc3c(ccc(C[C@H]4OCCC[C@@H]4N[C@H]4CC[C@@H](C(F)F)CC4)c3F)C2=O)C(=O)N1 parameter=DC50 censoringoperator=> valueobserved=1000
compound="O=C1CCC(N2Cc3cc(C[C@H]4CCCC[C@@H]4NCc4ccccc4)ccc3C2=O)C(=O)N1 (single isomer, unassigned) [Example 97]" parameter=DC50 censoringoperator== valueobserved=85
compound="O=C1CCC(N2Cc3cc(C[C@H]4CCCC[C@@H]4NC4CCC(F)(F)CC4)c(F)cc3C2=O)C(=O)N1 (stereo partly shown)" parameter=DC50 censoringoperator== valueobserved=124

====

- testSystem: IKZF2 (Homo sapiens, UniProt Q96SW2+Q9UKS7)
- testProtocol: HEK293 HiBiT in vitro degradation of IKZF2
- Type: cell-based
- Design: expressed in transfected cells
- measurementSetup: HEK293 HiBiT, 18-24 hr incubation, normalized to DMSO control; read-out: IKZF2 EC50
- Sequence (Q9UKS7 1-500 isoform Q9UKS7-2): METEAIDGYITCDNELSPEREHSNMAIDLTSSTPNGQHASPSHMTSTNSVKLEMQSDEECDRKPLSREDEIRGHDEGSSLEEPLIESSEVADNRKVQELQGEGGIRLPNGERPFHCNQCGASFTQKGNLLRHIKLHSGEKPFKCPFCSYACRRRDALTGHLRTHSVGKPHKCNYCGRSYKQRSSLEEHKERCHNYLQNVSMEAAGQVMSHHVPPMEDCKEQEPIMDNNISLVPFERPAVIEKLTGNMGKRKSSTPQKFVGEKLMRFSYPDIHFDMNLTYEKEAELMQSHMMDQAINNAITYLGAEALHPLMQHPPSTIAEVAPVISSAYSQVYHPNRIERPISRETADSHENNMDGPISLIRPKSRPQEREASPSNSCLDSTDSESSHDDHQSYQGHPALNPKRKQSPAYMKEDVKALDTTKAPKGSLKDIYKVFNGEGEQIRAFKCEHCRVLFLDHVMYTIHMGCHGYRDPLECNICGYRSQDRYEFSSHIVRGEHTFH
- Sequence (Q96SW2 whole entry): as the sequence (Q96SW2 whole entry) above
- Sequence (Q16531 whole entry partner): as the sequence (Q16531 whole entry partner) above
parameter: log10(DC50) (log10 of the value in nM)

molecule="CN(Cc1ccccc1)[C@H]1CCCC[C@@H]1Cc1ccc2c(c1)CN(C1CCC(=O)NC1=O)C2=O (stereo partly drawn)" valueobserved=2.61
molecule=O=C1CC[C@H](N2Cc3c(ccc(C[C@H]4OCCC[C@@H]4N[C@H]4CC[C@H](F)CC4)c3F)C2=O)C(=O)N1 valueobserved=0.70
molecule="CC(N[C@H]1CCCC[C@@H]1Cc1ccc2c(c1)CN(C1CCC(=O)NC1=O)C2=O)C(C)(C)F (single isomer, unassigned) [Example 227]" valueobserved=1.30
molecule="Cn1ccc(CN[C@H]2CCCC[C@@H]2Cc2ccc3c(c2)CN(C2CCC(=O)NC2=O)C3=O)n1 (stereo partly drawn)" valueobserved=2.28
molecule="CC(C)C(C)N[C@H]1CCCO[C@@H]1Cc1ccc2c(c1F)CN(C1CCC(=O)NC1=O)C2=O (stereo partly drawn)" valueobserved=1.00
molecule="O=C1CC[C@@H](N2Cc3c(ccc(C[C@H]4OCCC[C@@H]4N[C@H]4CC[C@H](C(F)F)CC4)c3F)C2=O)C(=O)N1 (single isomer, unassigned)" valueobserved=0.60

====

- testSystem: IKZF2 (Homo sapiens, UniProt Q96SW2+Q9UKS7)
- testProtocol: HEK293 HiBiT in vitro degradation of IKZF2
- Assay type: cell-based
- Design: expressed in transfected cells
- measurementSetup: HEK293, HEK293 HiBiT; maximum degradation at the highest concentration tested
parameter: Dmax (%)

compound="O=C1CCC(N2Cc3cc(C[C@H]4CCOC[C@@H]4NC4CCC(F)(F)CC4)ccc3C2=O)C(=O)N1 (stereo partly shown)" valueobserved=80
compound="COc1ccccc1CCN[C@H]1CCCC[C@@H]1Cc1ccc2c(c1)CN(C1CCC(=O)NC1=O)C2=O (stereo partly shown)" valueobserved=84
compound="[2H]C1(N[C@H]2CCCC[C@@H]2Cc2ccc3c(c2F)CN(C2CCC(=O)NC2=O)C3=O)CCC2(CC2)CC1 (stereo partly shown)" valueobserved=97
compound="CCC(C)N[C@H]1CCCC[C@@H]1Cc1ccc2c(c1F)CN(C1CCC(=O)NC1=O)C2=O (stereo partly shown) [Example 307]" valueobserved=96
compound="CCN[C@H]1CCCC[C@@H]1Oc1ccc2c(c1)CN(C1CCC(=O)NC1=O)C2=O (stereo partly shown)" valueobserved=93
compound="O=C1CCC(N2Cc3cc(C[C@H]4CCCC[C@@H]4NCc4cc(F)ccc4F)ccc3C2=O)C(=O)N1 (stereo partly shown)" valueobserved=86
compound=O=C1CC[C@H](N2Cc3cc(C[C@H]4CCCC[C@@H]4NC4CCC(F)(F)CC4)cc(F)c3C2=O)C(=O)N1 valueobserved=75

====

- testSystem: IKZF1 (Homo sapiens, UniProt Q13422+Q96SW2)
- Construct: expressed in transfected cells
- testProtocol: HEK293 HiBiT in vitro degradation of IKZF1
- Format: cell-based
- measurementSetup: HEK293 HiBiT, 18-24 hr incubation, normalized to DMSO control; read-out: IKZF1 EC50
parameter: DC50 (µM)

compound="O=C1CC[C@@H](N2Cc3cc(C[C@H]4CCCC[C@@H]4NC4CCCCC4)ccc3C2=O)C(=O)N1 (single isomer, unassigned)" censoringoperator=> valueobserved=1
compound="CC(C)OC1CCC(N[C@H]2CCCO[C@@H]2Cc2ccc3c(c2F)CN(C2CCC(=O)NC2=O)C3=O)CC1 (single isomer, unassigned) [Example 285]" censoringoperator== valueobserved=0.124
compound="O=C1CCC(N2Cc3cc(C[C@H]4CCCC[C@@H]4NCC4CCC(F)(F)CC4)ccc3C2=O)C(=O)N1 (stereo partly drawn)" censoringoperator== valueobserved=0.388
compound="CC1(C)CCC(N[C@H]2CCCO[C@@H]2Cc2ccc3c(c2F)CN(C2CCC(=O)NC2=O)C3=O)C1 (single isomer, unassigned) [Example 258]" censoringoperator== valueobserved=0.078
compound="CCC(C)N[C@H]1CCCC[C@@H]1Cc1ccc2c(c1)CN(C1CCC(=O)NC1=O)C2=O (single isomer, unassigned) [Example 300]" censoringoperator=> valueobserved=1
compound="O=C1CCC(N2Cc3cc(C[C@H]4CCCC[C@@H]4NCc4ccncc4)ccc3C2=O)C(=O)N1 (stereo partly drawn)" censoringoperator=> valueobserved=1

====

- testSystem: IKZF2 (Homo sapiens, UniProt Q96SW2+Q9UKS7)
- testProtocol: Human whole blood IKZF2 degradation (flow cytometry, CD4/CD25/Foxp3+ Treg cells)
- Format: cell-based
- Set-up: endogenous in cells
- measurementSetup: 24 hrs incubation, IKZF2 MFI in CD4/CD25/Foxp3+ Treg cells, flow cytometry
- Sequence (Q9UKS7 whole entry): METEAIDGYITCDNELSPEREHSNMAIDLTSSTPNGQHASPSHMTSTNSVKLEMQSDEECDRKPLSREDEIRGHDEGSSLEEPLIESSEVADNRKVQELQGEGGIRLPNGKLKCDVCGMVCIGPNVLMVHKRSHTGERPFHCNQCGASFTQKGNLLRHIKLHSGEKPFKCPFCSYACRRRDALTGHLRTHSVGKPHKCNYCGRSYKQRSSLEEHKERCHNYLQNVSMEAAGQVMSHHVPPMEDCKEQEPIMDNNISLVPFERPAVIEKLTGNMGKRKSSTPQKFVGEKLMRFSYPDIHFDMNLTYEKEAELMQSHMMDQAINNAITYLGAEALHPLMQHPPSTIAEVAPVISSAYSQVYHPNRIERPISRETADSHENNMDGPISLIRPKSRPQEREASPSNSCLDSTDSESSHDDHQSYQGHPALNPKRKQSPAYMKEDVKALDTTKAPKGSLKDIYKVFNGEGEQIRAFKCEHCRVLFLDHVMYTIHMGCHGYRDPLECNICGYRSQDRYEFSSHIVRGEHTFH
- Sequence (Q96SW2 whole entry): as the sequence (Q96SW2 whole entry) above
- Sequence (Q16531 whole entry partner): as the sequence (Q16531 whole entry partner) above
parameter: Dmax

compound="CC(N[C@H]1CCCO[C@@H]1Cc1ccc2c(c1F)CN(C1CCC(=O)NC1=O)C2=O)C1CCC1 (single isomer, unassigned)" parameter=Dmax valueobserved=95%
compound="CC(CC(F)(F)F)N[C@H]1CCCC[C@@H]1Cc1ccc2c(c1)CN(C1CCC(=O)NC1=O)C2=O (single isomer, unassigned)" parameter=Dmax valueobserved=100%
compound="CC(C)N[C@H]1CCCC[C@@H]1Cc1ccc2c(c1)CN(C1CCC(=O)NC1=O)C2=O (stereo partly drawn)" parameter=Dmax valueobserved=98%

====

Reported DC50 values are given for each entry in this list.
- testSystem: IKZF2 (Homo sapiens, UniProt Q96SW2+Q9UKS7)
- testProtocol: HEK293 HiBiT in vitro degradation of IKZF2
- Format: cell-based
- Parameters: expressed in transfected cells
- measurementSetup: HEK293 HiBiT, 18-24 hr incubation, normalized to DMSO control; read-out: IKZF2 EC50
parameter: DC50 (nM)

compound="O=C1CCC(N2Cc3c(ccc(C[C@H]4OCCC[C@@H]4NCC4CCC(F)(F)CC4)c3F)C2=O)C(=O)N1 (stereo partly drawn) [Example 149]" parameter=DC50 valueobserved=46
compound="CC1(C)CC(N[C@H]2CCCC[C@@H]2Cc2ccc3c(c2)CN(C2CCC(=O)NC2=O)C3=O)CCO1 (stereo partly drawn) [Example 110]" parameter=DC50 valueobserved=5
compound="O=C1CCC(N2Cc3cc(C[C@H]4OCCC[C@@H]4NC4CCC(C(F)(F)F)CC4)ccc3C2=O)C(=O)N1 (single isomer, unassigned) [Example 357]" parameter=DC50 valueobserved=23
compound="O=C1CCC(N2Cc3cc(C[C@H]4CCCC[C@@H]4NCc4cnccn4)ccc3C2=O)C(=O)N1 (stereo partly drawn) [Example 59]" parameter=DC50 valueobserved=75
compound="O=C1CCC(N2Cc3cc(C[C@H]4CCCC[C@@H]4NC4CCC(C(F)F)CC4)ccc3C2=O)C(=O)N1 (stereo partly drawn) [Example 216]" parameter=DC50 valueobserved=2
compound="COC(C)(C)CCN[C@H]1CCCC[C@@H]1Cc1ccc2c(c1)CN(C1CCC(=O)NC1=O)C2=O (stereo partly drawn) [Example 134]" parameter=DC50 valueobserved=61
compound="CC(CCC(F)F)N[C@H]1CCCO[C@@H]1Cc1ccc2c(c1F)CN(C1CCC(=O)NC1=O)C2=O (stereo partly drawn) [Example 320]" parameter=DC50 valueobserved=11
compound="CC(N[C@H]1CCCC[C@@H]1Cc1ccc2c(c1)CN(C1CCC(=O)NC1=O)C2=O)C12CC(C1)C2 (stereo partly drawn) [Example 138]" parameter=DC50 valueobserved=4
compound="O=C1CCC(N2Cc3cc(C[C@H]4CCCC[C@@H]4NC4CCCC[C@H]4F)ccc3C2=O)C(=O)N1 (stereo partly drawn) [Example 107]" parameter=DC50 valueobserved=3
compound="O=C1CCC(N2Cc3c(ccc(C[C@H]4CCCC[C@@H]4NC4CCOCC4)c3F)C2=O)C(=O)N1 (stereo partly drawn) [Example 116]" parameter=DC50 valueobserved=2
compound="CC(N[C@H]1CCCO[C@@H]1Cc1ccc2c(c1F)CN(C1CCC(=O)NC1=O)C2=O)C1COC1 (stereo partly drawn) [Example 319]" parameter=DC50 valueobserved=24
compound="CCC(C)N[C@H]1CCCC[C@@H]1Cc1ccc2c(c1F)CN(C1CCC(=O)NC1=O)C2=O (single isomer, unassigned) [Example 295]" parameter=DC50 valueobserved=1
compound="O=C1CCC(N2Cc3cc(C[C@H]4CCCC[C@@H]4NC4CC5CCC(C4)O5)ccc3C2=O)C(=O)N1 (stereo partly drawn) [Example 184]" parameter=DC50 valueobserved=3
compound="CC(N[C@H]1CCCC[C@@H]1Cc1ccc2c(c1)CN(C1CCC(=O)NC1=O)C2=O)C1(F)CC1 (single isomer, unassigned) [Example 224]" parameter=DC50 valueobserved=2
compound="O=C1CCC(N2Cc3cc(C[C@H]4CCCC[C@@H]4N4CC5(CN(Cc6ccccc6Cl)C5)C4)ccc3C2=O)C(=O)N1 (stereo partly drawn) [Example 34]" parameter=DC50 valueobserved=28
compound="O=C1CCC(N2Cc3cc(C[C@H]4CCCC[C@@H]4NC4CC5CCC(C5)C4)ccc3C2=O)C(=O)N1 (stereo partly drawn) [Example 191]" parameter=DC50 valueobserved=2
compound="CC(CC(F)(F)F)N[C@H]1CCCC[C@@H]1Cc1ccc2c(c1)CN(C1CCC(=O)NC1=O)C2=O (single isomer, unassigned) [Example 250]" parameter=DC50 valueobserved=2
compound="O=C1CCC(N2Cc3c(ccc(C[C@H]4OCCC[C@@H]4NCC4CC(F)(F)C4)c3F)C2=O)C(=O)N1 (stereo partly drawn) [Example 150]" parameter=DC50 valueobserved=51
compound="O=C1CCC(N2Cc3cc(C[C@H]4CCCC[C@@H]4NCc4cc(F)cc(F)c4)ccc3C2=O)C(=O)N1 (stereo partly drawn) [Example 15]" parameter=DC50 valueobserved=20
compound="O=C1CCC(N2Cc3cc(C[C@H]4CCCC[C@@H]4NC4CC5(CCC(F)(F)CC5)C4)ccc3C2=O)C(=O)N1 (stereo partly drawn) [Example 142]" parameter=DC50 valueobserved=5
compound="O=C1CCC(N2Cc3cc(C[C@H]4CCCC[C@@H]4NC4CCCOCC4)ccc3C2=O)C(=O)N1 (stereo partly drawn) [Example 197]" parameter=DC50 valueobserved=5
compound="O=C1CCC(N2Cc3c(ccc(C[C@H]4CCCC[C@@H]4NCC4CCC(F)(F)CC4)c3F)C2=O)C(=O)N1 (stereo partly drawn) [Example 99]" parameter=DC50 valueobserved=14
compound="O=C1CCC(N2Cc3c(ccc(C[C@H]4OCCC[C@@H]4N[C@H]4CC[C@H](F)CC4)c3F)C2=O)C(=O)N1 (single isomer, unassigned) [Example 289]" parameter=DC50 valueobserved=5
compound="O=C1CCC(N2Cc3cc(C[C@H]4CCCC[C@@H]4NC4CCC5(CC5)C4)ccc3C2=O)C(=O)N1 (single isomer, unassigned) [Example 281]" parameter=DC50 valueobserved=2
compound="O=C1CCC(N2Cc3cc(C[C@H]4CCCC[C@@H]4NC4Cc5ccccc5C4)ccc3C2=O)C(=O)N1 (stereo partly drawn) [Example 177]" parameter=DC50 valueobserved=4
compound="CC(N[C@H]1CCCC[C@@H]1Cc1ccc2c(c1)CN(C1CCC(=O)NC1=O)C2=O)C1CCCC1 (stereo partly drawn) [Example 202]" parameter=DC50 valueobserved=8
compound="CC(N[C@H]1CCCC[C@@H]1Cc1ccc2c(c1)CN(C1CCC(=O)NC1=O)C2=O)C1CCS(=O)(=O)CC1 (single isomer, unassigned) [Example 370]" parameter=DC50 valueobserved=10
